Source of measurements: patent US5320825A

- MEASURED_ON: serotonin reuptake sites (Rattus norvegicus, UniProt P31652)
- Construct: in rat brain tissue preparation; from tissue
- Sequence (P31652 whole entry): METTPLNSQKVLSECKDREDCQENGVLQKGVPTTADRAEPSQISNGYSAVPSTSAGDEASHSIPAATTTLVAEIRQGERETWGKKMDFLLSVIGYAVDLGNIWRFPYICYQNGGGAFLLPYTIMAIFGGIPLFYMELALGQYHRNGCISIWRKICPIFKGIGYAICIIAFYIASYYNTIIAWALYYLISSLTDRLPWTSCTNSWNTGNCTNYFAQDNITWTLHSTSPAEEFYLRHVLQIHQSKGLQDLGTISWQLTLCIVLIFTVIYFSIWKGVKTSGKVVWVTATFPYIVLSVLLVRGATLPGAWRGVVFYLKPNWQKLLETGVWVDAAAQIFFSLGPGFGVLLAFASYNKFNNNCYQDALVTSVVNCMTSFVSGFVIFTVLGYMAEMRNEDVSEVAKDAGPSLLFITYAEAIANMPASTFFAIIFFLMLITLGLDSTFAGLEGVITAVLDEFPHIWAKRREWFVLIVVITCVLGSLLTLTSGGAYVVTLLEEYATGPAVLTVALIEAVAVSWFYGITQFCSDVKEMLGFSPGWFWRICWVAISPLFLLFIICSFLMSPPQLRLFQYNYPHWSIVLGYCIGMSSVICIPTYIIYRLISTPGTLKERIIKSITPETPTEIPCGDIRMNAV
- TEST_DESCRIPTION: in vitro competitive binding assay, serotonin uptake sites, [3H]-Paroxetine
- CONDITION_CONTEXT: rat brain tissue preparation, [3H]-Paroxetine; read-out: Serotonin Uptake [3H]-Paroxetine Ki
- From the text: The affinity of the compounds prepared in Examples 1-4 to serotonin and norepinephrine uptake sites was studied using in vitro competitive binding assays.
RECORDED_ENDPOINT: pKi
Note: pKi values are expressed as the negative base-10 logarithm of concentration in M.

# pKi of CNCC[C@H](Oc1cccc(I)c1)c1ccccc1 [Compound 11] = 8.09
